test system: HL-60(TB) leukemia; test: NCI tumour cell line growth inhibition, 48 h
We'd kindly ask you to apply these TGI classes: I: < 8 µM; II: ≥ 8 µM and < 50 µM; III: ≥ 50 µM

Worked examples, 5 compounds total:
Band for the recorded TGI of CC(C)(C)OC(=O)NCCCCC1NC(=O)[C@@H]2Cc3c([nH]c4ccccc34)C(c3ccccc3)N2C1=O (stereo partly specified) ?
III

Band for the recorded TGI of Cc1ccc(C)c(C(=O)CC2OC(O)C(Cl)C2Cl)c1 (stereo unspecified) ?
III

Band for the recorded TGI of COc1cc(O)c2c(=O)c(O)c(-c3ccc(O)c(O)c3)oc2c1 ?
II

Band for the recorded TGI of Cc1ccc(C(=O)C2CC3(CCC2(O)c2ccc(C)cc2)CC(=O)Nc2ccccc2C3=O)cc1 (stereo unspecified) ?
III

Band for the recorded TGI of Cc1cc(NS(=O)(=O)c2ccc(NC(NC(=O)OC(C)C)(C(F)(F)F)C(F)(F)F)cc2)nc(C)n1 ?
III

New cases:
Band for the recorded TGI of O=C1C(=O)c2c(ccc3ccccc23)-c2ccccc21 ?
I

Band for the recorded TGI of COc1cc(CC2C(=O)OCC2Cc2ccc(OC)c(OC)c2)ccc1O (stereo unspecified) ?
III

====

system: HCT-15 colon; assay: NCI tumour cell line growth inhibition, 48 h
The following molecules are shown together with reported TGI values.

Can you look up TGI on HCT-15 colon for Cc1ccc(S(=O)(=O)NCc2cccc([N+](=O)[O-])c2)cc1 ?
> 100 µM

Can you look up TGI on HCT-15 colon for COc1ccc(NC(=S)Nc2cccc(C)n2)cc1 ?
> 100 µM

Can you look up TGI on HCT-15 colon for Cn1c(=O)c(Oc2ccc(F)cc2F)cc2cnc(NC3CCC(O)CC3)nc21 (stereo not given) ?
> 25 µM

Can you look up TGI on HCT-15 colon for COc1ccc(C[C@H](N)C(=O)N[C@@H]2[C@@H](CO)OC(n3cnc4c(N(C)C)ncnc43)[C@@H]2O)cc1 (stereo not given in full) ?
29.9 µM

Can you look up TGI on HCT-15 colon for O=CC12CCCN1CCC2 ?
> 100 µM

New cases:
Can you look up TGI on HCT-15 colon for CCNC(=O)O/N=C1/C=C2CC[C@@H]3C(CC[C@@]4(C)C3CC[C@@H]4OC(=O)NCC)[C@@]2(C)CC1 (stereo not given in full) ?
11.2 µM

Can you look up TGI on HCT-15 colon for N#Cc1c(N/N=C/c2c(Cl)cccc2Cl)nc(N)nc1N1CCCC1 ?
20 µM

Can you look up TGI on HCT-15 colon for CC(C)=NO.CC(C)=NO.CC(C)=NO.CC(C)=NO.[Ti] ?
> 100 µM

Can you look up TGI on HCT-15 colon for C/C(=N\NC(=O)c1ccncc1)c1ccccc1O ?
> 100 µM

Can you look up TGI on HCT-15 colon for Cn1c(=O)c(-c2c(Cl)cccc2Cl)cc2cnc(Nc3ccc(N4CCOCC4)cc3)nc21 ?
> 100 µM

====

system: SNB-75 CNS; experiment: NCI tumour cell line growth inhibition, 48 h; in the data active means GI50 below about 0.43 µM; inactive means the rest
Select the correct class. Options are active, inactive and nothing else.

Worked examples, 8 compounds total:
Outcome logged for CCC(=C(c1ccc(OCCN(CC)CC)cc1)c1ccc(OCCN(CC)CC)cc1)c1ccc(Cl)cc1 in this assay:
inactive

Outcome logged for O=C(Nc1cccc(C(F)(F)F)c1)Nc1cc(S(=O)(=O)NC2CC2)ccc1-c1ccsc1 in this assay:
inactive

Outcome logged for Cn1c(=O)c(Oc2ccc(F)cc2F)cc2cnc(NC3CCC(O)CC3)nc21 (centres undefined) in this assay:
inactive

Outcome logged for COc1ccc(S(=O)(=O)NCCCNc2nccc(-c3c(-c4ccc(F)cc4)nc4sccn34)n2)cc1 in this assay:
inactive

Outcome logged for CN1CCN(Cc2ccc(NC(=O)c3cncc(C#Cc4cnc5cccnn45)c3)cc2C(F)(F)F)CC1 in this assay:
inactive

Outcome logged for COc1cc2nccc(Oc3ccc(NC(=O)C4(C(=O)Nc5ccc(F)cc5)CC4)cc3)c2cc1OC in this assay:
active

Outcome logged for Clc1ccc(N=CNc2ccc(-c3nc4ccccc4[nH]3)cc2)cc1 in this assay:
inactive

Outcome logged for O=C(Nc1cccc(C(F)(F)F)c1)Nc1ccc(OCc2nnc(-c3ccccc3)o2)c(F)c1 in this assay:
inactive

New cases:
Outcome logged for Oc1ccc(/C=N/Nc2nnc(N/N=C/c3ccc(O)cc3O)c3ccccc23)c(O)c1 in this assay:
active

Every entry's value here was drawn from PubChem BioAssay (NCI).
